Assay Text: Pharmacokinetic analyses in mouse
Assay type: in vivo
Experimental Context: NMRI, mouse, plasma, iv, 5 mg/kg, NMRI mice, i.v., 5 mg/kg, PK study; read-out: AUC0-24h
// reported AUC(0-t) per item
Quantity: AUC(0-t) (µM·h)

Cc1ncsc1-c1ccc([C@H](CCCCCN2CCC(c3ccc4c(c3)n(C3CCCC3)c3nc(=O)c5c(Br)cccc5n43)CC2)NC(=O)[C@@H]2C[C@@H](O)CN2C(=O)[C@@H](NC(=O)C2(F)CC2)C(C)(C)C)cc1 [compound 11]; 36
Cc1ncsc1-c1ccc(C(CCC(C)CCN2CCC(c3ccc4c(c3)n(C3CCCC3)c3nc(=O)c5c(Br)cccc5n43)CC2)NC(=O)C2CC(O)CN2C(=O)C(NC(=O)C2(F)CC2)C(C)(C)C)cc1 (centres unmarked) [ACBI2]; 38

----------
Measured On: SMARCA4 (Homo sapiens)
Sequence (P51532 whole entry): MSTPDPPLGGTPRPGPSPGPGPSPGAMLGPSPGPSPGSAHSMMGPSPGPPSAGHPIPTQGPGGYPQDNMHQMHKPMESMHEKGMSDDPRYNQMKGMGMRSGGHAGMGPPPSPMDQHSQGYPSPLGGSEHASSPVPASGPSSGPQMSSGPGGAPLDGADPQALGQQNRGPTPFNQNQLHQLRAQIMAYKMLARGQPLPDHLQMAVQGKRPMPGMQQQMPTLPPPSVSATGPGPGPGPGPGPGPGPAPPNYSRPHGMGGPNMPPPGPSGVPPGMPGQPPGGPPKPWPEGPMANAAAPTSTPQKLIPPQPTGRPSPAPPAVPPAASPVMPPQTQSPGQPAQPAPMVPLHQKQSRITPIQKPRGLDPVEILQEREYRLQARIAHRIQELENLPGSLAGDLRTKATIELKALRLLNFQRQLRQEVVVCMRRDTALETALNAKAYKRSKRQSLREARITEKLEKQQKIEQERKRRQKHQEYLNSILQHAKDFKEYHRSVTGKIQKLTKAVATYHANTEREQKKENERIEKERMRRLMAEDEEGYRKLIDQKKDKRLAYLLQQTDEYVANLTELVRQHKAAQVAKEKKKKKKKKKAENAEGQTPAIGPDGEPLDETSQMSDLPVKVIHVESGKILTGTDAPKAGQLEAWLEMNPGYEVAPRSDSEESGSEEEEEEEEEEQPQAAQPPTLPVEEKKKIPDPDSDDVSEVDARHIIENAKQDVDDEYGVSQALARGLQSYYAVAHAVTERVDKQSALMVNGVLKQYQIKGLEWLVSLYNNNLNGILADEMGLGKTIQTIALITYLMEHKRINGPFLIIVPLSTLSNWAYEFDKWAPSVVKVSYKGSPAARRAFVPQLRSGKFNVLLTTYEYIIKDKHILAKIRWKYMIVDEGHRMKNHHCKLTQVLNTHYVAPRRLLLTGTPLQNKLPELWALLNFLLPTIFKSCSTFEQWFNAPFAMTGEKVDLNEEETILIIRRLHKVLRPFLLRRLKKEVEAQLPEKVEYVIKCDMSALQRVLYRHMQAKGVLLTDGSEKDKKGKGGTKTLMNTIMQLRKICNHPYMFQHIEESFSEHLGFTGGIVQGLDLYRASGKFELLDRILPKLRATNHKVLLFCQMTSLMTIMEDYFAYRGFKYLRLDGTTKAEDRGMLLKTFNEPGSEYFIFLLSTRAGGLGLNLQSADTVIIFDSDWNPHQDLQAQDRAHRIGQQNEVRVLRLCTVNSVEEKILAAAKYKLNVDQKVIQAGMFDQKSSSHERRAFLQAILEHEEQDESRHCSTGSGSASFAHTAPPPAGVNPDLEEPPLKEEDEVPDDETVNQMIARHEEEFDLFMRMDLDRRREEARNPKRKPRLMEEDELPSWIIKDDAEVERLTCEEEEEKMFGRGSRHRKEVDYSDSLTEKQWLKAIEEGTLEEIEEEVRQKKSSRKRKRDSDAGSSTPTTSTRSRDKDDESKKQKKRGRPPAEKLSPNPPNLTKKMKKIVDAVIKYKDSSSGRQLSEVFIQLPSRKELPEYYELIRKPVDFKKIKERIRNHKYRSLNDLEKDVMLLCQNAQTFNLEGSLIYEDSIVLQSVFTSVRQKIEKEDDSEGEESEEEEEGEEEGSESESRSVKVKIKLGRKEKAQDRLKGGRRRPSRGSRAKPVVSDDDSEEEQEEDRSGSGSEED
Assay Text: SMARCA4 capillary electrophoresis protein assay in RKO cells
Format: cell-based
Design: endogenous in cells; host or cells: RKO, HCT116, LU99, HCC-364, HCT-15, HCC4006, SK-N-AS
Experimental Context: RKO, RKO (18 h); mean ± SD
Experimental: 130,000–200,000 cells were seeded in 24-well plates and incubated until settled down or overnight. Compounds were dissolved in DMSO and added to cells in indicated concentrations using a digital dispenser following an optional media change. Cells were incubated for 4 or 18 h as indicated. For SMARCA2/4 half-life determination, 150,000 or 200,000 cells were seeded in 24-well plates. […] Proteins were quantified with accompanying Compass Software. […]
# satisfied = Dmax below 80% (exclusive); not satisfied = Dmax at/above 80%

Cc1ncsc1-c1ccc([C@H](COC(C)CN2CCC(c3ccc4c(c3)n(C3CCCC3)c3nc(=O)c5c(Br)cccc5n43)CC2)NC(=O)[C@@H]2C[C@@H](O)CN2C(=O)[C@@H](NC(=O)C2(F)CC2)C(C)(C)C)cc1 (stereo partly shown); not satisfied
Cc1ncsc1-c1ccc(C(CCC(C)CCN2CCC(c3ccc4c(c3)n(C3CCCC3)c3nc(=O)c5c(Br)cccc5n43)CC2)NC(=O)C2CC(O)CN2C(=O)C(NC(=O)C2(F)CC2)C(C)(C)C)cc1 (stereo not shown); satisfied
Cc1ncsc1-c1ccc([C@H](CC[C@H](C)CCN2CCC(c3ccc4c(c3)n(C3CCCC3)c3nc(=O)c5c(Br)cccc5n43)CC2)NC(=O)[C@@H]2C[C@H](O)CN2C(=O)[C@@H](NC(=O)C2(F)CC2)C(C)(C)C)cc1; not satisfied
Cc1ncsc1-c1ccc([C@H](COC(C)CN2CCC(c3ccc4c(c3)n(C3CCCC3)c3nc(=O)c5c(Br)cccc5n43)CC2)NC(=O)[C@@H]2C[C@@H](O)CN2C(=O)[C@@H](NC(=O)C2(N(C)C)CC2)C(C)(C)C)cc1 (stereo partly shown); satisfied

----------
Assay Text: Cell viability assay (CellTiter Glo) in NCI-H1568;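 also: percent of DMSO-treated control cells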
Type: cell-based, human
Experimental Context: human, NCI-H1568 cells, NCI-H1568; log10 conc -5.90309 mol/l
Protocol: 500–2000 cells were seeded in white, clear bottom 96-well plates (Corning or Perkin Elmer) in 180–200 µl medium per well. The next day, compounds were added using a digital dispenser and a T0 sample was measured for reference. […], and viability (luminescence) was measured using CellTiter Glo or CellTiter Glo 2.0 (Promega) according to manufacturer’s instructions after equilibrating cells and reagents at room temperature and 10–20 min incubation time while shaking.
Quantity: viability at 1.25 µM (%)

Cc1ncsc1-c1ccc(C(CCC(C)CCN2CCC(c3ccc4c(c3)n(C3CCCC3)c3nc(=O)c5c(Br)cccc5n43)CC2)NC(=O)C2CC(O)CN2C(=O)C(NC(=O)C2(F)CC2)C(C)(C)C)cc1 (stereo not shown) [ACBI2]; 0.898

----------
Assay Text: Cell viability assay (CellTiter Glo) in a panel of cell lines;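 also: percent of DMSO-treated control cells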
Assay type: cell-based, human
Experimental Context: human, KYSE-30 cells, KYSE-30; log10 conc -6.50446 mol/l
Quantity: viability at 0.313 µM (%)

Cc1ncsc1-c1ccc(C(CCC(C)CCN2CCC(c3ccc4c(c3)n(C3CCCC3)c3nc(=O)c5c(Br)cccc5n43)CC2)NC(=O)C2CC(O)CN2C(=O)C(NC(=O)C2(F)CC2)C(C)(C)C)cc1 (stereo not shown) [ACBI2]; 92.8

----------
// reported pEC50 per item
Measured On: VCB: PROTAC: SMARCA2^BD ternary complex (Homo sapiens, UniProt P40337+P51531)
Sequence (P51531 with tags, fused parts or gaps isoform P51531-2): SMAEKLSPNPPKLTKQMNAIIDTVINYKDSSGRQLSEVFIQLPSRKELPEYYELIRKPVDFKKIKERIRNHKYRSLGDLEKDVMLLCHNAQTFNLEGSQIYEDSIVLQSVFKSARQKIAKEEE
Sequence (P40337 54-213): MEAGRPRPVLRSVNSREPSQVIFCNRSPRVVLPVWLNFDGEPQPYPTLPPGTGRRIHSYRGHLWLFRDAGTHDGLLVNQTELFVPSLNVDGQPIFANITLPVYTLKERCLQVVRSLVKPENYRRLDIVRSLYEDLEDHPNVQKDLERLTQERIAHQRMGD
Sequence (Q15369 17-112 partner): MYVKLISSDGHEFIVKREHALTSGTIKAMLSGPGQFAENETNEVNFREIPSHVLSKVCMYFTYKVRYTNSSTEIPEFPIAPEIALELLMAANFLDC
Sequence (Q15370 1-104 partner): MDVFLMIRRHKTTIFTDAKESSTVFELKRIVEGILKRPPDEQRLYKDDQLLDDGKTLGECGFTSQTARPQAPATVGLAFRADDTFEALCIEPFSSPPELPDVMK
Assay Text: TR-FRET ternary complex affinity and cooperativity, SMARCA2
Format: binding
Design: P51531-2, residues 1373-1493 with additional N-terminal SM residues; GST (TEV site) (N); His6 (TEV site) (N, cleaved yes); made in house; host or cells: SMARCA2^BD: Escherichia coli BL21(DE3)
Experimental Context: TR-FRET competition for SMARCA2BD, + VCB; mean ± SD; read-out: TR-FRET Ternary SMARCA2BD EC50 (PROTAC + VCB)
pEC50: −log10 of the molar value.
Quantity: pEC50

Cc1ncsc1-c1ccc([C@H](COC(C)(C)CN2CCC(c3ccc4c(c3)n(C3CCCC3)c3nc(=O)c5c(Br)cccc5n43)CC2)NC(=O)[C@@H]2C[C@@H](O)CN2C(=O)[C@@H](NC(=O)C2(F)CC2)C(C)(C)C)cc1 [compound 28]; 7.46
Cc1ncsc1-c1ccc([C@H](CC[C@@H](C)CCN2CCC(c3ccc4c(c3)n(C3CCCC3)c3nc(=O)c5c(Br)cccc5n43)CC2)NC(=O)[C@@H]2C[C@@H](O)CN2C(=O)[C@@H](NC(=O)C2(F)CC2)C(C)(C)C)cc1 [compound 29]; 7.49
Cc1ncsc1-c1ccc(CNC(=O)[C@@H]2C[C@@H](O)CN2C(=O)[C@@H](NC(=O)C2(F)CC2)C(C)(C)C)c(OCCOCCOCCOCCN2CCC(c3ccc4c(c3)n(C3CCCC3)c3nc(=O)c5c(Br)cccc5n43)CC2)c1 [compound 22]; 6.99
Cc1ncsc1-c1ccc([C@H](COCCN2CCC(c3ccc4c(c3)n(C3CCCC3)c3nc(=O)c5c(Br)cccc5n43)CC2)NC(=O)[C@@H]2C[C@@H](O)CN2C(=O)[C@@H](NC(=O)C2(N(C)C)CC2)C(C)(C)C)cc1 [compound 26]; 7.89
Cc1ncsc1-c1ccc([C@H](COCCCN2CCC(c3ccc4c(c3)n(C3CCCC3)c3nc(=O)c5c(Br)cccc5n43)CC2)NC(=O)[C@@H]2C[C@@H](O)CN2C(=O)[C@@H](NC(=O)C2(F)CC2)C(C)(C)C)cc1 [compound 27]; 7.54
Cc1ncsc1-c1ccc(CNC(=O)[C@@H]2C[C@H](O)CN2C(=O)[C@@H](NC(=O)C2(F)CC2)C(C)(C)C)c(OCCN2CCC(c3ccc4c(c3)n(C3CCCC3)c3nc(=O)c5c(Br)cccc5n43)CC2)c1 [compound 19]; 7.14
Cc1ncsc1-c1ccc([C@H](COC(C)CN2CCC(c3ccc4c(c3)n(C3CCCC3)c3nc(=O)c5c(Br)cccc5n43)CC2)NC(=O)[C@@H]2C[C@@H](O)CN2C(=O)[C@@H](NC(=O)C2(F)CC2)C(C)(C)C)cc1 (stereo partly drawn) [compound 9]; 7.68
Cc1ncsc1-c1ccc([C@H](CCC(C)(C)CCN2CCC(c3ccc4c(c3)n(C3CCCC3)c3nc(=O)c5c(Br)cccc5n43)CC2)NC(=O)[C@@H]2C[C@@H](O)CN2C(=O)[C@@H](NC(=O)C2(F)CC2)C(C)(C)C)cc1 [compound 30]; 7.29
Cc1ncsc1-c1ccc(CNC(=O)[C@@H]2C[C@@H](O)CN2C(=O)[C@@H](NC(=O)C2(F)CC2)C(C)(C)C)c(OCCN2CCC(c3ccc4c(c3)n(C3CCCC3)c3nc(=O)c5c(Br)cccc5n43)CC2)c1 [compound 20]; 6.85

----------
Measured On: VCB: PROTAC: SMARCA4^BD ternary complex (Homo sapiens, UniProt P40337+P51532)
Sequence (P40337 54-213): as the sequence (P40337 54-213) above
Sequence (Q15369 17-112 partner limits assumed): as the sequence (Q15369 17-112 partner) above
Sequence (Q15370 1-104 partner limits assumed): as the sequence (Q15370 1-104 partner) above
Sequence (P51532 1448-1569): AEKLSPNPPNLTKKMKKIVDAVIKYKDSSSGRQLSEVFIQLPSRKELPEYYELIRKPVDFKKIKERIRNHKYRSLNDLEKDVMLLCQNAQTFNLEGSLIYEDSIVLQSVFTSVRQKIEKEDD
Assay Text: SPR ternary complex measurement, VCB immobilised, 10 µM SMARCA4^BD present
Assay type: binding
Design: P51532, residues 1448–1569 with additional N-terminal SM residues; His6 (TEV site) (N, cleaved yes); GST (TEV site) (N, cleaved yes); made in house; host or cells: SMARCA4^BD: Escherichia coli BL21(DE3)
Experimental Context: SPR, ternary complex with SMARCA4BD; mean ± SD
Quantity: Kd (µM)

Cc1ncsc1-c1ccc([C@H](CCCCCN2CCC(c3ccc4c(c3)n(C3CCCC3)c3nc(=O)c5c(Br)cccc5n43)CC2)NC(=O)[C@@H]2C[C@@H](O)CN2C(=O)[C@@H](NC(=O)C2(F)CC2)C(C)(C)C)cc1; 0.018
Cc1ncsc1-c1ccc([C@H](COC(C)CN2CCC(c3ccc4c(c3)n(C3CCCC3)c3nc(=O)c5c(Br)cccc5n43)CC2)NC(=O)[C@@H]2C[C@@H](O)CN2C(=O)[C@@H](NC(=O)C2(N(C)C)CC2)C(C)(C)C)cc1 (stereo partly drawn); 0.172
Cc1ncsc1-c1ccc(CNC(=O)[C@@H]2C[C@@H](O)CN2C(=O)[C@@H](NC(=O)C2(F)CC2)C(C)(C)C)c(OCCN2CCC(c3ccc4c(c3)n(C3CCCC3)c3nc(=O)c5c(Br)cccc5n43)CC2)c1; 0.067
Cc1ncsc1-c1ccc(CNC(=O)[C@@H]2C[C@@H](O)CN2C(=O)[C@@H](NC(=O)C2(F)CC2)C(C)(C)C)c(OCCOCCOCCN2CCC(c3ccc4c(c3)n(C3CCCC3)c3nc(=O)c5c(Br)cccc5n43)CC2)c1; 0.016
Cc1ncsc1-c1ccc([C@H](COCCN2CCC(c3ccc4c(c3)n(C3CCCC3)c3nc(=O)c5c(Br)cccc5n43)CC2)NC(=O)[C@@H]2C[C@@H](O)CN2C(=O)[C@@H](NC(=O)C2(N(C)C)CC2)C(C)(C)C)cc1; 0.116
Cc1ncsc1-c1ccc([C@H](COC(C)(C)CN2CCC(c3ccc4c(c3)n(C3CCCC3)c3nc(=O)c5c(Br)cccc5n43)CC2)NC(=O)[C@@H]2C[C@@H](O)CN2C(=O)[C@@H](NC(=O)C2(F)CC2)C(C)(C)C)cc1; 0.073
Cc1ncsc1-c1ccc([C@H](CC[C@@H](C)CCN2CCC(c3ccc4c(c3)n(C3CCCC3)c3nc(=O)c5c(Br)cccc5n43)CC2)NC(=O)[C@@H]2C[C@@H](O)CN2C(=O)[C@@H](NC(=O)C2(F)CC2)C(C)(C)C)cc1; 0.011
Cc1ncsc1-c1ccc([C@H](COCCCN2CCC(c3ccc4c(c3)n(C3CCCC3)c3nc(=O)c5c(Br)cccc5n43)CC2)NC(=O)[C@@H]2C[C@@H](O)CN2C(=O)[C@@H](NC(=O)C2(F)CC2)C(C)(C)C)cc1; 0.018
Cc1ncsc1-c1ccc(CNC(=O)[C@@H]2C[C@@H](O)CN2C(=O)[C@@H](NC(=O)C2(F)CC2)C(C)(C)C)c(OCCCCN2CCC(c3ccc4c(c3)n(C3CCCC3)c3nc(=O)c5c(Br)cccc5n43)CC2)c1; 0.084
